- tgt: Botulinum neurotoxin type A (Clostridium botulinum (strain Hall / ATCC 3502 / NCTC 13319 / Type A)) (UniProt P0DPI1)
- experimentNotes: Inhibition of Clostridium botulinum Hall BoNT/A-mediated paralysis in CD1 mouse phrenic nerve hemidiaphragm assessed as time required to 50% loss of twitch tension at 20 uM measured upto 5 hrs (reference value: 62 mins)
Measured TIME values are reported for all entries that follow.
measuredParameter: TIME (h)

CCC[C@H]1Cc2cc3c(-c4c(O)cc(O)c5c(O)c6c(cc45)C[C@H](CCC)OC6=O)c(O)cc(O)c3c(O)c2C(=O)O1: 3.28
CC1CC(=O)c2c(cc3c(-c4c(O)cc(O)c5c(O)c6c(cc45)OC(C)CC6=O)c(O)cc(O)c3c2O)O1 (configuration not stated) [CEPHALOCHROMIN]: 0.983
COC(=O)[C@]12Oc3ccc(-c4ccc5c(c4O)C(=O)C4=C(O)C[C@@H](C)[C@H](O)[C@@]4(C(=O)OC)O5)c(O)c3C(=O)C1=C(O)C[C@@H](C)[C@@H]2O [SECALONIC ACID A]: 1.12
CCC[C@H]1Cc2cc3c(-c4c(O)cc(O)c5c(O)c6c(cc45)C[C@H](CCC)OC6=O)c(O)cc(O)c3c(O)c2C(=O)O1 (single isomer, unassigned; atropisomer): 1.58
Cc1cc(O)c2c(c1)C(=O)c1c(c(O)cc(O)c1-c1c(O)cc(O)c3c1C(=O)c1cc(C)cc(O)c1C3=O)C2=O [SKYRIN]: 1.35
CCOc1ccc(C(Nc2cccnc2)c2cc(Cl)c3cccnc3c2O)cc1 (racemic): 5
C[C@H]1Oc2cc3c(-c4c(O)cc(O)c5c(O)c6c(cc45)O[C@H](C)[C@@H](C)C6=O)c(O)cc(O)c3c(O)c2C(=O)[C@@H]1C [CHAETOCHROMIN A]: 3.13

---

Collected IC50 values appear next to each entry.
- tgt: Botulinum neurotoxin type A (Clostridium botulinum (strain Hall / ATCC 3502 / NCTC 13319 / Type A), UniProt P0DPI1)
- Sequence (P0DPI1 2-448 limits assumed): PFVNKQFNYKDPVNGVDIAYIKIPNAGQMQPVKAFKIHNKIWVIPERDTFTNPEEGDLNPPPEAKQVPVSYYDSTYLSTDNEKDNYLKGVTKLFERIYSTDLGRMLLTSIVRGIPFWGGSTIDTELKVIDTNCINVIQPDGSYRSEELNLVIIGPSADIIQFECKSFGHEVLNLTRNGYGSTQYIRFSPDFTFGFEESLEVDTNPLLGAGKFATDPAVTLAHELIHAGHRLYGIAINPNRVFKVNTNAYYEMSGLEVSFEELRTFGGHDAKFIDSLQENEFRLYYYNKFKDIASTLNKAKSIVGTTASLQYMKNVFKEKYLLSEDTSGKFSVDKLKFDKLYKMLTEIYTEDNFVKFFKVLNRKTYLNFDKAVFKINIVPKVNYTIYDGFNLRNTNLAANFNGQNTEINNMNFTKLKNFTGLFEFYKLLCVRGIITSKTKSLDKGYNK
- experimentNotes: Inhibition of Clostridium botulinum Hall BoNT/A protease activity using Ac-SNKTRIDEANQRATKML-NH2 as substrate after 5 mins by RP-HPLC analysis
measuredParameter: IC50 (µM)

COC(=O)[C@]12Oc3ccc(-c4ccc5c(c4O)C(=O)C4=C(O)C[C@@H](C)[C@H](O)[C@@]4(C(=O)OC)O5)c(O)c3C(=O)C1=C(O)C[C@@H](C)[C@@H]2O [SECALONIC ACID A]: 28.6
CCC[C@H]1Cc2cc3c(-c4c(O)cc(O)c5c(O)c6c(cc45)C[C@H](CCC)OC6=O)c(O)cc(O)c3c(O)c2C(=O)O1 [TALARODERXINE A]: 3.7
CCC[C@H]1Cc2cc3c(-c4c(O)cc(O)c5c(O)c6c(cc45)C[C@H](CCC)OC6=O)c(O)cc(O)c3c(O)c2C(=O)O1 (single isomer, unassigned; atropisomer) [TALARODERXINE A]: 10.1
Cc1cc(O)c2c(c1)C(=O)c1c(c(O)cc(O)c1-c1c(O)cc(O)c3c1C(=O)c1cc(C)cc(O)c1C3=O)C2=O [SKYRIN]: 31.5
CCOc1ccc(C(Nc2cccnc2)c2cc(Cl)c3cccnc3c2O)cc1 (racemic): 2.1
C[C@H]1Oc2cc3c(-c4c(O)cc(O)c5c(O)c6c(cc45)O[C@H](C)[C@@H](C)C6=O)c(O)cc(O)c3c(O)c2C(=O)[C@@H]1C [CHAETOCHROMIN A]: 24.6
CC1CC(=O)c2c(cc3c(-c4c(O)cc(O)c5c(O)c6c(cc45)OC(C)CC6=O)c(O)cc(O)c3c2O)O1 (configuration not stated) [CEPHALOCHROMIN]: 29.2

The reported numbers originate from ChEMBL document CHEMBL2062470.
